In this section we review reported inhibition at 1 µM values for a set of compounds.
Target: JAK3 (Homo sapiens, UniProt P52333)
Construct: purchased Invitrogen
Sequence (P52333 whole entry): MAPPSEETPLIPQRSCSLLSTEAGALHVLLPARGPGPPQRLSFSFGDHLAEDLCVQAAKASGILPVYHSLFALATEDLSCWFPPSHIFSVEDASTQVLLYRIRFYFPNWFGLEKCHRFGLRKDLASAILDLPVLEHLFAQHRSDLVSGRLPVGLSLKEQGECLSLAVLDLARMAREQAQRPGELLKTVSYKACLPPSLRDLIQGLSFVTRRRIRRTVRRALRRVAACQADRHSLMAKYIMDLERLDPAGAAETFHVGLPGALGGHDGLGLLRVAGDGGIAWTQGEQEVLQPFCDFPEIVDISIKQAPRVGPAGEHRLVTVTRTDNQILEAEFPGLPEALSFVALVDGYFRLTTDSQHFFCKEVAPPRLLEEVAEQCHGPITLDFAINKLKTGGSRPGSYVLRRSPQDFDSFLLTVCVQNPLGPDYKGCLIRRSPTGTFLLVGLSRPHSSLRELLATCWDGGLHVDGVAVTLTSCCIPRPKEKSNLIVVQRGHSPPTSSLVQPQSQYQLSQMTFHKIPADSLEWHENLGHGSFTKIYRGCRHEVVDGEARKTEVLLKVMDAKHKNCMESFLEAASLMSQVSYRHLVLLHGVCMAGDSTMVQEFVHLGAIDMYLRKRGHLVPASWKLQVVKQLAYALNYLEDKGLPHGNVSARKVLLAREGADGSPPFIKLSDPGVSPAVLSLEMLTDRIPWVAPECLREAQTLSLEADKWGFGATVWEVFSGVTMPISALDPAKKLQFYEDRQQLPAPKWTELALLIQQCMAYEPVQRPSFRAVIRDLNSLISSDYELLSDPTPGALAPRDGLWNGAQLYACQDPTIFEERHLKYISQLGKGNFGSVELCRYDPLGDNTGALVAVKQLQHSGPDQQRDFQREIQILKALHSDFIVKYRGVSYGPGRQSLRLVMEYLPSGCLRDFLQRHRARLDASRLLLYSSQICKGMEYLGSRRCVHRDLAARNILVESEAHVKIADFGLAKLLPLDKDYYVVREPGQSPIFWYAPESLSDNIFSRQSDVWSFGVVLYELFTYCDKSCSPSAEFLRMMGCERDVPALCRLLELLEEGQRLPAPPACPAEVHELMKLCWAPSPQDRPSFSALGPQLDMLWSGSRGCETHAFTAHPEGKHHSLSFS
Test: JAK3 enzyme inhibition test (LANCE method)
Type: biochemical
Conditions: 1 μM test compound; read-out: JAK3 enzyme inhibitory activity (%, 1 μM)
readout.label: inhibition at 1 µM (%)

{"columns": ["compound", "study.system", "readout.label", "result.unit", "meas.value"],
 "data": [
  ["CC(C)N1CCN(c2cc(-c3cn([C@@H](C)C4CC4)c(=O)c4c(N)n[nH]c34)nn2C)CC1=O", "JAK3 (Homo sapiens, UniProt P52333)", "inhibition at 1 µM", "%", 99],
  ["CCOC(=O)C(C(C)C)n1cc(-c2cc(N3CCOCC3)n(C)n2)c2[nH]nc(N)c2c1=O (stereo not drawn)", "JAK3 (Homo sapiens, UniProt P52333)", "inhibition at 1 µM", "%", 97],
  ["CC(C)[C@H](C)n1cc(-c2cc(N3CCN(C)CC3)n(C)n2)c2[nH]nc(N)c2c1=O", "JAK3 (Homo sapiens, UniProt P52333)", "inhibition at 1 µM", "%", 99],
  ["CC(C)[C@H](C)n1cc(-c2cc(C(C)(C)C#N)n(C)n2)c2[nH]nc(N)c2c1=O", "JAK3 (Homo sapiens, UniProt P52333)", "inhibition at 1 µM", "%", 99],
  ["COC1(c2cc(-c3cn([C@@H](C)C4CC4)c(=O)c4c(N)n[nH]c34)nn2C)CN(S(=O)(=O)C(C)C)C1", "JAK3 (Homo sapiens, UniProt P52333)", "inhibition at 1 µM", "%", 100],
  ["CN1CCN(c2cc(-c3cn(C(C4CC4)C4CC4)c(=O)c4c(N)n[nH]c34)nn2C)CC1", "JAK3 (Homo sapiens, UniProt P52333)", "inhibition at 1 µM", "%", 101],
  ["CC(C)[C@H](C)n1cc(-c2cc(C3(O)CCC3)n(C)n2)c2[nH]nc(N)c2c1=O", "JAK3 (Homo sapiens, UniProt P52333)", "inhibition at 1 µM", "%", 100],
  ["CC(C)[C@H](C)n1cc(-c2cc(CN3CCCC3=O)n(C)n2)c2[nH]nc(N)c2c1=O", "JAK3 (Homo sapiens, UniProt P52333)", "inhibition at 1 µM", "%", 99],
  ["CN(c1cc(-c2cn(-c3c(F)cccc3C#N)c(=O)c3c(N)n[nH]c23)nn1C)C1CCCC1", "JAK3 (Homo sapiens, UniProt P52333)", "inhibition at 1 µM", "%", 95],
  ["CNC[C@H]1CCCN1c1cc(-c2cn(C(C3CC3)C3CC3)c(=O)c3c(N)n[nH]c23)nn1C", "JAK3 (Homo sapiens, UniProt P52333)", "inhibition at 1 µM", "%", 98],
  ["COC1(c2cc(-c3cn(-c4c(F)cccc4F)c(=O)c4c(N)n[nH]c34)nn2C)CCS(=O)(=O)CC1", "JAK3 (Homo sapiens, UniProt P52333)", "inhibition at 1 µM", "%", 99],
  ["CC(C)[C@H](C)n1cc(-c2cc(N3CCC(F)(F)CC3)n(C)n2)c2[nH]nc(N)c2c1=O", "JAK3 (Homo sapiens, UniProt P52333)", "inhibition at 1 µM", "%", 100],
  ["COCCN(C)C(=O)c1cc(-c2cn([C@@H](C)C(C)C)c(=O)c3c(N)n[nH]c23)nn1C", "JAK3 (Homo sapiens, UniProt P52333)", "inhibition at 1 µM", "%", 99],
  ["COC(C)(C)c1cc(-c2cn(-c3c(F)cccc3C#N)c(=O)c3c(N)n[nH]c23)nn1C", "JAK3 (Homo sapiens, UniProt P52333)", "inhibition at 1 µM", "%", 97],
  ["CC1CCCCC1n1cc(-c2cc(C(C)(C)O)n(C)n2)c2[nH]nc(N)c2c1=O (stereo not drawn) [Example 117]", "JAK3 (Homo sapiens, UniProt P52333)", "inhibition at 1 µM", "%", 97],
  ["CC(C)[C@H](C)n1cc(-c2cc(N3CCCC3)n(C)n2)c2[nH]nc(N)c2c1=O", "JAK3 (Homo sapiens, UniProt P52333)", "inhibition at 1 µM", "%", 100],
  ["CC(C)[C@H](C)n1cc(-c2cc(N3CCC[C@H]3CO)n(C)n2)c2[nH]nc(N)c2c1=O", "JAK3 (Homo sapiens, UniProt P52333)", "inhibition at 1 µM", "%", 100],
  ["Cn1nc(-c2cn(C(C3CC3)C3CC3)c(=O)c3c(N)n[nH]c23)cc1N1CC[C@H](O)C1", "JAK3 (Homo sapiens, UniProt P52333)", "inhibition at 1 µM", "%", 100],
  ["CC(C)[C@H](C)n1cc(-c2cc(C(=O)N3CCS(=O)(=O)CC3)n(C)n2)c2[nH]nc(N)c2c1=O", "JAK3 (Homo sapiens, UniProt P52333)", "inhibition at 1 µM", "%", 99],
  ["CC(C)C(n1cc(-c2cc(N3CCOCC3)n(C)n2)c2[nH]nc(N)c2c1=O)C(F)(F)F (stereo not drawn)", "JAK3 (Homo sapiens, UniProt P52333)", "inhibition at 1 µM", "%", 97],
  ["Cn1nc(-c2cn(-c3c(F)cccc3C#N)c(=O)c3c(N)n[nH]c23)cc1C(C)(C)O", "JAK3 (Homo sapiens, UniProt P52333)", "inhibition at 1 µM", "%", 98],
  ["CC(C)[C@H](C)n1cc(-c2cc(N3CCCC3CN(C)C)n(C)n2)c2[nH]nc(N)c2c1=O (stereo partly drawn)", "JAK3 (Homo sapiens, UniProt P52333)", "inhibition at 1 µM", "%", 97],
  ["CC(C)[C@H](C)n1cc(-c2cc(C3CC3)n(C)n2)c2[nH]nc(N)c2c1=O", "JAK3 (Homo sapiens, UniProt P52333)", "inhibition at 1 µM", "%", 99],
  ["CN(C[C@H]1CCCN1c1cc(-c2cn(C(C3CC3)C3CC3)c(=O)c3c(N)n[nH]c23)nn1C)C(=O)OC(C)(C)C", "JAK3 (Homo sapiens, UniProt P52333)", "inhibition at 1 µM", "%", 98],
  ["CC(n1cc(-c2cc(N3CCOCC3)n(C)n2)c2[nH]nc(N)c2c1=O)C1(C)CC1 (stereo not drawn)", "JAK3 (Homo sapiens, UniProt P52333)", "inhibition at 1 µM", "%", 100],
  ["CC(C)[C@H](C)n1cc(-c2cc(N(C)C(C)C)n(C)n2)c2[nH]nc(N)c2c1=O", "JAK3 (Homo sapiens, UniProt P52333)", "inhibition at 1 µM", "%", 99],
  ["CC(C)[C@H](C)n1cc(-c2cc(N3CCCC3=O)n(C)n2)c2[nH]nc(N)c2c1=O", "JAK3 (Homo sapiens, UniProt P52333)", "inhibition at 1 µM", "%", 99],
  ["CC(C)C(C1CC1)n1cc(-c2cc(N3CCOCC3)n(C)n2)c2[nH]nc(N)c2c1=O (stereo not drawn)", "JAK3 (Homo sapiens, UniProt P52333)", "inhibition at 1 µM", "%", 99],
  ["C[C@H](C1CC1)n1cc(-c2cc(C(C)(C)O)n(C)n2)c2[nH]nc(N)c2c1=O", "JAK3 (Homo sapiens, UniProt P52333)", "inhibition at 1 µM", "%", 97],
  ["C[C@@H](C1CC1)n1cc(-c2cc(N3CCS(=O)(=O)C(C)(C)C3)n(C)n2)c2[nH]nc(N)c2c1=O", "JAK3 (Homo sapiens, UniProt P52333)", "inhibition at 1 µM", "%", 100]
]}

* * *

Target: JAK2 (Homo sapiens)
Construct: purchased Invitrogen
Sequence (O60674 whole entry): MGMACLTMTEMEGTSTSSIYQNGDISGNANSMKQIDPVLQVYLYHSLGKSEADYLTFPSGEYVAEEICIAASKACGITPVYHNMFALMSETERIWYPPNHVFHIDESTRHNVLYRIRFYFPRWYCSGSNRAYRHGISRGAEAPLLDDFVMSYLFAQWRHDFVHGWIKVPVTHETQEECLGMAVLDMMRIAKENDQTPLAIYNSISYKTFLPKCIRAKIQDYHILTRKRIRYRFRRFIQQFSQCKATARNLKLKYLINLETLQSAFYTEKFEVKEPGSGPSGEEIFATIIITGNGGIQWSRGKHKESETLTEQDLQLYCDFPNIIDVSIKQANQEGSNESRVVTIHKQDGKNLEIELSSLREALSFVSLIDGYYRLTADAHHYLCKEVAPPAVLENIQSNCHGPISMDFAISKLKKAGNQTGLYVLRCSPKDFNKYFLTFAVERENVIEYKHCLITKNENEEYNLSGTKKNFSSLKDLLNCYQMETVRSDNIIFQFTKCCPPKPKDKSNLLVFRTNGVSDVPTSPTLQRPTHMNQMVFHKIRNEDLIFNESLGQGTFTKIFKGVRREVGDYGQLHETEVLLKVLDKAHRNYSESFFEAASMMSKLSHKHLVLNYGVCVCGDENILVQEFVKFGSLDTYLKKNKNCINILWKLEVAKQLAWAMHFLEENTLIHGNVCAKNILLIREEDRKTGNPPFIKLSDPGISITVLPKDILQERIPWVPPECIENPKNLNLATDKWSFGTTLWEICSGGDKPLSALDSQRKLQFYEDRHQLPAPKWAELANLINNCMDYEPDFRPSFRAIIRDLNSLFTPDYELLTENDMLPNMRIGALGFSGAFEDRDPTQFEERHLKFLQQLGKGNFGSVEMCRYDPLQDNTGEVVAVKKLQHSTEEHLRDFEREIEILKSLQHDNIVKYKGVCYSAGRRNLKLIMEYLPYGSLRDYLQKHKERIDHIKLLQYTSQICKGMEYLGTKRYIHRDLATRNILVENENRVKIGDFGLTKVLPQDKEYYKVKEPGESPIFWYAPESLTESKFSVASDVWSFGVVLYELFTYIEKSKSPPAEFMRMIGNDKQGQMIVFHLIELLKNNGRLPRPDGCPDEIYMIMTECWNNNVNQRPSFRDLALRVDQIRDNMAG
Experiment: JAK2 enzyme inhibition test (LANCE method)
Assay type: biochemical
Conditions: 1 μM test compound; read-out: JAK2 enzyme inhibitory activity (%, 1 μM)
Procedure: JAK2 enzyme inhibitory activity of test compounds was measured by the LANCE method (PerkinElmer). First, a test compound diluted with assay buffer (50 mM HEPES (pH 7.5), 10 mM MgCl2, 1 mM EGTA, 2 mM DTT, 0.01% Tween20, 0.01% BSA) was added to a 384-well plate by 2 μL each. Then, a JAK2 (Invitrogen) solution and a fluorescence-labeled peptide substrate (ULight-JAK1, PerkinElmer) solution diluted with assay buffer to 6 ng/mL and 300 nM, respectively, were added by 2 μL each. […]
In this section we review reported inhibition at 1 µM values for a set of compounds.
readout.label: inhibition at 1 µM (%)

{"columns": ["smiles.representation", "meas.value"],
 "data": [
  ["CC(C)[C@H](C)n1cc(-c2cc(C(=O)N3CCS(=O)(=O)CC3)n(C)n2)c2[nH]nc(N)c2c1=O", 99],
  ["CO[C@H]1CCN(c2cc(-c3cn(C(C4CC4)C4CC4)c(=O)c4c(N)n[nH]c34)nn2C)C1", 99],
  ["Cn1nc(-c2cn(C(C3CC3)C3CC3)c(=O)c3c(N)n[nH]c23)cc1N1C2CCC1COC2", 100],
  ["CC(C)[C@H](C)n1cc(-c2cc(N3CCOCC3=O)n(C)n2)c2[nH]nc(N)c2c1=O", 97],
  ["CC(C)[C@H](C)n1cc(-c2cc(C(C)(C)C#N)n(C)n2)c2[nH]nc(N)c2c1=O", 99],
  ["COC1(c2cc(-c3cn([C@@H](C)C4CC4)c(=O)c4c(N)n[nH]c34)nn2C)CN(S(=O)(=O)C(C)C)C1", 100],
  ["Cn1nc(-c2cn(-c3c(F)cccc3C#N)c(=O)c3c(N)n[nH]c23)cc1C1=CCOCC1", 97]
]}
